System: HeLa
Experiment: MTT assay, antiproliferative activity
Type: cell-based
Details: Homo sapiens, 10 µM, 48h, read-out: Mean Growth Percentage
Listing of entries alongside the reported activity at 10 µM.
Observation Type: activity at 10 µM (%)

{"columns": ["Compound", "Observation Type", "Unit Abbreviation", "Value Measured"],
 "data": [
  ["COC(=O)c1c(NC(=O)c2cc(OC)c(OC)c(OC)c2)n[nH]c1Nc1ccccc1 [compound 14]", "activity at 10 µM", "%", 9.45],
  ["CCOC(=O)c1c(NC(=O)c2ccc(OC)cc2)n[nH]c1Nc1ccccc1 [compound 15]", "activity at 10 µM", "%", 105],
  ["COc1ccc(/C=N/NC(=O)c2c(Nc3ccccc3)nn(CC(O)c3ccccc3)c2N)cc1 (stereo not drawn) [13a]", "activity at 10 µM", "%", 83.7],
  ["CCOC(=O)c1c(NC(=O)c2ccc(OC)cc2)nn(C)c1Nc1ccccc1 [compound 19]", "activity at 10 µM", "%", 124],
  ["CCOC(=O)c1c(NC(=O)C2CC2)nn(C)c1Nc1ccccc1 [compound 17]", "activity at 10 µM", "%", 109],
  ["CCOC(=O)c1c(NC(=O)c2c(OC)cccc2OC)nn(C)c1Nc1ccccc1 [compound 20]", "activity at 10 µM", "%", 111],
  ["CCOC(=O)c1c(NC(=O)c2cc(OC)c(OC)c(OC)c2)nn(C)c1Nc1ccccc1 [compound 22]", "activity at 10 µM", "%", 109],
  ["COc1ccc(/C=N/NC(=O)c2c(Nc3ccccc3)nn(C)c2N)cc1Oc1ccccc1 [12c]", "activity at 10 µM", "%", 85.2],
  ["COc1ccc(/C=N/NC(=O)c2c(Nc3ccccc3)nn(C)c2N)cc1OCc1ccccc1 [12d]", "activity at 10 µM", "%", 85.7],
  ["COc1ccc(/C=N/NC(=O)c2c(N)n[nH]c2Nc2ccccc2)cc1 [10a]", "activity at 10 µM", "%", 98.4],
  ["CCOC(=O)c1c(NC(=O)c2ccc(OC)c(OC)c2)nn(C)c1Nc1ccccc1 [compound 21]", "activity at 10 µM", "%", 108],
  ["COc1ccc(/C=N/NC(=O)c2c(Nc3ccccc3)nn(C)c2N)cc1OC [12b]", "activity at 10 µM", "%", 92.8],
  ["COc1ccc(/C=N/NC(=O)c2c(Nc3ccccc3)nn(CC(O)c3ccccc3)c2N)cc1Oc1ccccc1 (stereo not drawn) [13c]", "activity at 10 µM", "%", 97.9],
  ["COc1ccc(/C=N/NC(=O)c2c(Nc3ccccc3)nn(C)c2N)cc1 [12a]", "activity at 10 µM", "%", 94.8],
  ["COc1ccc(/C=N/NC(=O)c2c(N)nn(C)c2Nc2ccccc2)cc1Oc1ccccc1 [11c]", "activity at 10 µM", "%", 101],
  ["CCOC(=O)c1c(NC(=O)c2ccc(Cl)cc2)nn(C)c1Nc1ccccc1 [compound 18]", "activity at 10 µM", "%", 91.5],
  ["CCOC(=O)c1c(NC(=O)c2ccc(OC)c(OC)c2)n[nH]c1Nc1ccccc1 [compound 16]", "activity at 10 µM", "%", 57.6],
  ["COc1ccc(/C=N/NC(=O)c2c(N)nn(C)c2Nc2ccccc2)cc1OC [11b]", "activity at 10 µM", "%", 99.5]
]}

###

Entries annotated with measured Mean growth percentage at 10 µM
System: MDA-MB231
Experiment: MTT assay, antiproliferative activity
Assay type: cell-based
Conditions: Homo sapiens, MDA-MB-231, 48h

{"columns": ["Molecule", "Mean growth percentage at 10 µM / %"],
 "data": [
  ["CCOC(=O)c1c(NC(=O)C2CC2)nn(C)c1Nc1ccccc1", 127],
  ["COc1ccc(/C=N/NC(=O)c2c(Nc3ccccc3)nn(CC(O)c3ccccc3)c2N)cc1 (centres unmarked) [13a]", 96.4],
  ["CCOC(=O)c1c(NC(=O)c2c(OC)cccc2OC)nn(C)c1Nc1ccccc1", 124],
  ["COc1ccc(/C=N/NC(=O)c2c(Nc3ccccc3)nn(CC(O)c3ccccc3)c2N)cc1OC (centres unmarked) [13b]", 92.1],
  ["COc1ccc(/C=N/NC(=O)c2c(N)nn(C)c2Nc2ccccc2)cc1OC [11b]", 85.7]
]}

###

Here, each record is paired with measured melting point data.
Observation Type: melting point

{"columns": ["Compound", "Value Measured"],
 "data": [
  ["COc1ccc(/C=N/NC(=O)c2c(N)nn(C)c2Nc2ccccc2)cc1OCc1ccccc1 [11d]", "183 to 186 °C"],
  ["COc1ccc(/C=N/NC(=O)c2c(N)nn(C)c2Nc2ccccc2)cc1 [11a]", "208 to 210 °C"],
  ["COC(=O)c1c(NC(=O)c2cc(OC)c(OC)c(OC)c2)n[nH]c1Nc1ccccc1", "164 to 166 °C"],
  ["CCOC(=O)c1c(NC(=O)c2cc(OC)c(OC)c(OC)c2)nn(C)c1Nc1ccccc1", "135 to 138 °C"],
  ["COc1ccc(/C=N/NC(=O)c2c(Nc3ccccc3)nn(CC(O)c3ccccc3)c2N)cc1Oc1ccccc1 (centres unmarked) [13c]", "144 to 145 °C"],
  ["COc1ccc(/C=N/NC(=O)c2c(Nc3ccccc3)nn(C)c2N)cc1OC [12b]", "104 to 106 °C"],
  ["COc1ccc(/C=N/NC(=O)c2c(Nc3ccccc3)nn(CC(O)c3ccccc3)c2N)cc1OCc1ccccc1 (centres unmarked) [13d]", "170 to 173 °C"],
  ["COc1ccc(/C=N/NC(=O)c2c(Nc3ccccc3)nn(CC(O)c3ccccc3)c2N)cc1OC (centres unmarked) [13b]", "158 to 159 °C"],
  ["CCOC(=O)c1c(NC(=O)c2ccc(OC)c(OC)c2)nn(C)c1Nc1ccccc1", "186 to 187 °C"],
  ["CCOC(=O)c1c(NC(=O)c2c(OC)cccc2OC)nn(C)c1Nc1ccccc1", "158 to 160 °C"],
  ["CCOC(=O)c1c(NC(=O)c2ccc(Cl)cc2)nn(C)c1Nc1ccccc1", "158 to 161 °C"]
]}

###

Test system: HeLa
Experiment: MTT assay, antiproliferative activity
Assay type: cell-based
Conditions: Homo sapiens, 10 µM, 48h, read-out: Mean Growth Percentage

{"columns": ["Compound", "Unit Abbreviation", "activity at 10 µM"],
 "data": [
  ["COc1ccc(/C=N/NC(=O)c2c(Nc3ccccc3)nn(CC(O)c3ccccc3)c2N)cc1OC (centres unmarked) [13b]", "%", 98.8],
  ["COc1ccc(/C=N/NC(=O)c2c(N)nn(C)c2Nc2ccccc2)cc1OCc1ccccc1 [11d]", "%", 95.2],
  ["COc1ccc(/C=N/NC(=O)c2c(Nc3ccccc3)nn(CC(O)c3ccccc3)c2N)cc1OCc1ccccc1 (centres unmarked) [13d]", "%", 96.7],
  ["COc1ccc(/C=N/NC(=O)c2c(N)n[nH]c2Nc2ccccc2)cc1OC [10b]", "%", 105],
  ["COc1ccc(/C=N/NC(=O)c2c(N)nn(C)c2Nc2ccccc2)cc1 [11a]", "%", 25]
]}

###

Assay: DPPH radical-scavenging activity
Type: physicochemical
Details: mean ± SD, n = 2

{"columns": ["Molecule", "DPPH (%)"],
 "data": [
  ["CCOC(=O)c1c(NC(=O)c2cc(OC)c(OC)c(OC)c2)nn(C)c1Nc1ccccc1", 97.61],
  ["COc1ccc(/C=N/NC(=O)c2c(N)nn(C)c2Nc2ccccc2)cc1OCc1ccccc1 [11d]", 84.47],
  ["COc1ccc(/C=N/NC(=O)c2c(N)nn(C)c2Nc2ccccc2)cc1 [11a]", 74.44],
  ["COC(=O)c1c(NC(=O)c2cc(OC)c(OC)c(OC)c2)n[nH]c1Nc1ccccc1", 96.38],
  ["COc1ccc(/C=N/NC(=O)c2c(N)n[nH]c2Nc2ccccc2)cc1OC [10b]", 23.55],
  ["COc1ccc(/C=N/NC(=O)c2c(Nc3ccccc3)nn(C)c2N)cc1OCc1ccccc1 [12d]", 30.90],
  ["COc1ccc(/C=N/NC(=O)c2c(Nc3ccccc3)nn(CC(O)c3ccccc3)c2N)cc1OCc1ccccc1 (stereo not shown) [13d]", 43.71]
]}

###

Tested on: GM-6114
Experiment: MTT assay, cytotoxicity on normal fibroblasts
Type: cell-based
Details: human, 48 h, 10 µM
Listed here: items and their measured Mean Growth Percentage.

{"columns": ["Molecule", "Mean Growth Percentage [%]"],
 "data": [
  ["COc1ccc(/C=N/NC(=O)c2c(Nc3ccccc3)nn(CC(O)c3ccccc3)c2N)cc1 (centres unmarked) [13a]", 99.43],
  ["CCOC(=O)c1c(NC(=O)c2ccc(OC)c(OC)c2)n[nH]c1Nc1ccccc1", 53.68],
  ["COc1ccc(/C=N/NC(=O)c2c(Nc3ccccc3)nn(CC(O)c3ccccc3)c2N)cc1OC (centres unmarked) [13b]", 106.86],
  ["COc1ccc(/C=N/NC(=O)c2c(N)nn(C)c2Nc2ccccc2)cc1 [11a]", 69.81],
  ["CCOC(=O)c1c(NC(=O)c2ccc(OC)cc2)n[nH]c1Nc1ccccc1", 68.40]
]}
